Molecular target: UniProt Q96LA9
Experiment: MRGPRX4 activation, Fluo-8 Ca2+ FLIPR assay in HEK293T cells stably expressing MRGPRX4
Assay type: cell-based
Settings: second E3-8-1, 3333 nM, n = 2
Assay Endpoint: Activation (%)
# include the unit after the value

Check out these entries, answers already filled in.
CC[C@H]1[C@@H](O)[C@@H]2[C@H](CC[C@]3(C)[C@@H]([C@H](C)COC(=O)NS(=O)(=O)c4ccc(N5CCCCC5)nc4)CC[C@@H]23)[C@@]2(C)CCCC[C@@H]12 [18-3]: 2.24%
CC[C@H]1[C@@H](O)[C@@H]2[C@H](CC[C@]3(C)[C@@H]([C@H](C)CNC(=O)NS(=O)(=O)c4ccc(N5CCCCC5)nc4)CC[C@@H]23)[C@@]2(C)CCCC[C@@H]12 [20-3]: 3.17%
CC[C@H]1[C@@H](O)[C@@H]2[C@H](CC[C@]3(C)[C@@H]([C@H](C)COC(=O)NS(=O)(=O)c4ccc(C(C)(C)CF)cc4)CC[C@@H]23)[C@@]2(C)CCCC[C@@H]12 [18-1]: 2.55%

Lab note: next molecule to report on.
q: Return Activation (%) (reported value) for this molecule: CC[C@H]1[C@@H](O)[C@@H]2[C@H](CC[C@]3(C)[C@@H]([C@H](C)COC(=O)NS(=O)(=O)c4ccc5c(c4)CCC(C)(C)O5)CC[C@@H]23)[C@@]2(C)CCCC[C@@H]12 [18-2]
a: 1.93%

---

Each record here notes measured MRGPRX4 activation, Ave..
Target: MRGPRX4 (Homo sapiens)
Sequence (Q96LA9 whole entry): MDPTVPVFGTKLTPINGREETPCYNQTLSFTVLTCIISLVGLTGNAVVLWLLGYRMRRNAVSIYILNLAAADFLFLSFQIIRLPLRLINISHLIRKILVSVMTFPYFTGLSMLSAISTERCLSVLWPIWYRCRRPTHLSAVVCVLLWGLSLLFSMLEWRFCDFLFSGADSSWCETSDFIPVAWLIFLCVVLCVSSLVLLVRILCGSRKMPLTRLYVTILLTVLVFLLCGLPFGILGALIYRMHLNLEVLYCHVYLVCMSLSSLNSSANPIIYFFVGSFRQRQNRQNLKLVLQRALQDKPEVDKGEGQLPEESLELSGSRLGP
Experiment: MRGPRX4 activation, Fluo-8 Ca2+ FLIPR assay in HEK293T cells stably expressing MRGPRX4
Assay type: cell-based
Design: key: fluorescence change dF/F0
Settings: E3-7, Conc. (Log[M]) −7
Reply: number alone, nothing else.

CC[C@H]1[C@@H](O)[C@@H]2[C@H](CC[C@]3(C)[C@@H]([C@H](C)CCNC(=O)C(=O)NS(=O)(=O)c4cc(F)cc(F)c4)CC[C@@H]23)[C@@]2(C)CCCC[C@@H]12: 0.000

q: Return MRGPRX4 activation, Ave. (reported value) for this compound: `CC[C@H]1[C@@H](O)[C@@H]2[C@H](CC[C@]3(C)[C@@H]([C@H](C)CCNC(=O)NS(=O)(=O)c4cc(F)ccc4F)CC[C@@H]23)[C@@]2(C)CCCC[C@@H]12`
a: 0.000

q: Return MRGPRX4 activation, Ave. (reported value) for this compound: `[2H]C1([2H])CC[C@@]2(C)[C@@H](C1)[C@@H](CC)[C@@H](O)[C@@H]1[C@@H]2CC[C@]2(C)[C@@H]([C@H](C)CCNC(=O)NS(=O)(=O)c3ccc(C(C)(C)CF)cc3)CC[C@@H]12`
a: −0.027

q: Return MRGPRX4 activation, Ave. (reported value) for this compound: [2H]C1CC[C@@]2(C)[C@@H](C1)[C@@H](CC)[C@@H](O)[C@@H]1[C@@H]2CC[C@]2(C)[C@@H]([C@H](C)CCNC(=O)NS(=O)(=O)c3ccc(C(C)(C)CF)cc3)CC[C@@H]12 (stereo partly shown)
a: 0.000

---

Biological target: UniProt Q96LA9
Test: MRGPRX4 activation, Fluo-8 Ca2+ FLIPR assay in HEK293T cells stably expressing MRGPRX4
Assay type: cell-based
Parameters: key: fluorescence change dF/F0
Conditions: E3-9, Conc. (Log[M]) −7.8
Each record here notes measured MRGPRX4 activation, Average.
Reply: number alone, nothing else.

Check out these entries, answers already filled in.
CC[C@H]1[C@@H](O)[C@@H]2[C@H](CC[C@]3(C)[C@@H]([C@H](C)CCC(=O)O)CC[C@@H]23)[C@@]2(C)CCC(F)(F)C[C@@H]12: 0.016
CC[C@H]1[C@@H](O)[C@@H]2[C@H](CC[C@]3(C)[C@@H]([C@H](C)CCNS(=O)(=O)c4cc(F)ccc4F)CC[C@@H]23)[C@@]2(C)CCCC[C@@H]12: 0.011
CC[C@H]1[C@@H](O)[C@@H]2[C@H](CC[C@]3(C)[C@@H]([C@H](C)CCNC(=O)NS(=O)(=O)c4cc(F)cc(F)c4)CC[C@@H]23)[C@@]2(C)CC[C@H](F)C[C@@H]12: 0.016

q: Return MRGPRX4 activation, Average (reported value) for this molecule: `CC[C@H]1[C@@H](O)[C@@H]2[C@H](CC[C@]3(C)[C@@H]([C@H](C)CCN=C=S)CC[C@@H]23)[C@@]2(C)CCCC[C@@H]12`
a: 0.006

Each recorded value in this set is attributed to patent US20260116910A1.
